recombinant UMI read abundance (log10) values, listed per item
PROTOCOL: recombinant UMI read abundance after kanamycin selection (control-corrected) (log10(CPM+1)); higher = more efficient recombination; extreme values may be limits of the assay; sequences stand for … in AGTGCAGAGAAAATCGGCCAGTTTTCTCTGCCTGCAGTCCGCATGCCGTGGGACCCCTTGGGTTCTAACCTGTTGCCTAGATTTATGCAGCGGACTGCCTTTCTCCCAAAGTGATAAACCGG…AGGTTGGTTTCACT; site = the 11-nt donor
I'd appreciate a reply containing only the number, no unit.

Examples from the recorded data:
# POLYMER SEQUENCE, MEASUREMENT
rows = [
    ("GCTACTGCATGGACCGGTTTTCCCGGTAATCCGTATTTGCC (site GCTAGTGCTGG)", 0),
    ("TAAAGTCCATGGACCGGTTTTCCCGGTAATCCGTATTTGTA (site TAAAGTTCTTA)", 0.0051),
    ("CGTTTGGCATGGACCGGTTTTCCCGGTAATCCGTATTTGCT (site CGTTAGGCTAG)", 0),
    ("TAGGGTGCATGGACCGGTTTTCCCGGTAATCCGTATTTGAC (site TAGGGTGCTGT)", 2.6),
]

// moving on: another record for recombinant UMI read abundance (log10)
Data request: Returns the measured recombinant UMI read abundance (log10) for the input sequence. Input: GATTATCCATGGACCGGTTTTCCCGGTAATCCGTATTTGGT (site GATTATCCTAG)
Data returned: 0

---

PROTOCOL: recombinant barcode read abundance after kanamycin selection (control-corrected) (log10(CPM+1)); higher = more efficient recombination; sequences stand for … in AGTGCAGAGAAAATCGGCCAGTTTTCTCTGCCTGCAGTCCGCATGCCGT…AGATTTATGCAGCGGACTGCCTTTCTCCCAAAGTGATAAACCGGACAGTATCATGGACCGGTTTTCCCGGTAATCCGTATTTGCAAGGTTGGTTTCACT; site = the 11-nt target
Label scheme for recombinant barcode read abundance (log10): c1 = under 0.08, c2 = from 0.08 up to 0.7, c3 = 0.7 and over

Check out these entries, answers already filled in.
# POLYMER SEQUENCE, LABEL CLASS
records = [
    ("TGCGTGTCTTGGGTTCTAACCTGTTGCTG (site TGCGTGTCTCA)", "c3"),
    ("AACTGAACTTGGGTTCTAACCTGTTGCCT (site AACTAAACTAG)", "c2"),
    ("GTAATTGCTTGGGTTCTAACCTGTTGCCT (site GTAATTGCTAG)", "c3"),
    ("TGCGGAGCTTGGGTTCTAACCTGTTGCCT (site TGCGGAGCTAG)", "c3"),
    ("AAGACCTCTTGGGTTCTAACCTGTTGCTT (site AAGACCTCTAA)", "c3"),
]

Data request: Band for ACGGATCCTTGGGTTCTAACCTGTTGCAT (site GTCCTATCTTG) ?
Data returned: c1

Data request: Another sequence to check: TTCACGTCTTGGGTTCTAACCTGTTGCCT (site TTCATGTCTAG)
Data returned: c1

Data request: # repeat for CGGTCTACTTGGGTTCTAACCTGTTGCCT (site CTGTCTACTAG)
Data returned: c1

Data request: Can you check TCTTATACTTGGGTTCTAACCTGTTGCAT (site TCTTATACTAT) next?
Data returned: c2

Data request: Now the sequence ATGCCTCCTTGGGTTCTAACCTGTTGCTT (site ATGCCTCCTAA)
Data returned: c2

Data request: What do you have for TCCTAATCTTGGGTTCTAACCTGTTGCAT (site TCCTAACCTAG) ?
Data returned: c1

---

PROTOCOL: recombinant barcode read abundance after kanamycin selection (control-corrected) (log10(CPM+1)); higher = more efficient recombination; sequences stand for … in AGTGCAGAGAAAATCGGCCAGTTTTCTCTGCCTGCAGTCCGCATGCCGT…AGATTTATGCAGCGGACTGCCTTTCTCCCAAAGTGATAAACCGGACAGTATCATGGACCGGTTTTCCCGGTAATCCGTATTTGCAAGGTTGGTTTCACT; site = the 11-nt target
PARAMETER MEASURED: recombinant barcode read abundance (log10)
Provide a numeric answer; units are not to be included.

Below, 3 sequences whose answers are already recorded.
# POLYMER SEQUENCE, MEASUREMENT
rows = [
    ("AGATCCACTTGGGTTCTAACCTGTTGCCT (site TGATCCACTAG)", 0.0724),
    ("AGTTAGCCTTGGGTTCTAACCTGTTGCCT (site AGTGAGCCTAG)", 0.114),
    ("CGTCCTTCTTGGGTTCTAACCTGTTGCCT (site CGTCCTTCTAG)", 0.0421),
]

// next entry
Data request: Request the reported recombinant barcode read abundance (log10) associated with GCCTCGGCTTGGGTTCTAACCTGTTGCCT (site GCCTCGGCTAG)
Data returned: 0.134

---

PROTOCOL: recombinant barcode read abundance after kanamycin selection (control-corrected) (log10(CPM+1)); higher = more efficient recombination; sequences stand for … in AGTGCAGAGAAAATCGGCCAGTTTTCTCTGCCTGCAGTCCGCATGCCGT…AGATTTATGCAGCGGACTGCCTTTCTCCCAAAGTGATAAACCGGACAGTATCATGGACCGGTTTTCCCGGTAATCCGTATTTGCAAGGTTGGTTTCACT; site = the 11-nt target
Decide by recombinant barcode read abundance (log10): equal to or exceeding 0.07 means criterion met, less means criterion not met.

Past entries and their recorded results:
# POLYMER SEQUENCE, LABEL CLASS
rows = [
    ("CGGTGTCCTTGGGTTCTAACCTGTTGCTT (site CGGTGTCCTAA)", "criterion met"),
    ("TACAAGCCTTGGGTTCTAACCTGTTGCCT (site TAGAAGCCTCG)", "criterion met"),
    ("CTCGGATCTTGGGTTCTAACCTGTTGCTA (site CTCGGATCTCA)", "criterion met"),
    ("GGAGGTCCTTGGGTTCTAACCTGTTGCTA (site GGAGGTCCTTA)", "criterion met"),
    ("GGCGGAGCTTGGGTTCTAACCTGTTGCCG (site CTGCACCCTTA)", "criterion met"),
    ("CAGGATGCTTGGGTTCTAACCTGTTGCCT (site CATGATGCTAG)", "criterion not met"),
    ("AGTAAGTCTTGGGTTCTAACCTGTTGCCT (site ATTAAGTCTAG)", "criterion not met"),
    ("CTCTTAACTTGGGTTCTAACCTGTTGCGG (site AAGCATGCTTA)", "criterion met"),
    ("CTCTTAGCTTGGGTTCTAACCTGTTGCAA (site CTCTTAGCTTT)", "criterion not met"),
    ("TCGCATTCTTGGGTTCTAACCTGTTGCAT (site TCGCATTCTAT)", "criterion met"),
]

Data request: Say whether GATTCACCTTGGGTTCTAACCTGTTGCCT (site TATTCACCTAG) shows recombinant barcode read abundance (log10) of 0.07 or more.
Data returned: criterion met

Data request: // query: CTCTAACCTTGGGTTCTAACCTGTTGCGT (site CTCTAGCCTAC)
Data returned: criterion met

Data request: Also TGGAGAGCTTGGGTTCTAACCTGTTGCAG (site ACCTTGCCTTA) ?
Data returned: criterion not met

Data request: Thanks! And TTGTGAGCTTGGGTTCTAACCTGTTGCGG (site TTGTAAGCTCG) ?
Data returned: criterion not met

Data request: Same read-out for TCCTACTCTTGGGTTCTAACCTGTTGCCG (site TCCGACTCTCG) ?
Data returned: criterion met

---

PROTOCOL: recombinant UMI read abundance after kanamycin selection (control-corrected) (log10(CPM+1)); higher = more efficient recombination; extreme values may be limits of the assay; sequences stand for … in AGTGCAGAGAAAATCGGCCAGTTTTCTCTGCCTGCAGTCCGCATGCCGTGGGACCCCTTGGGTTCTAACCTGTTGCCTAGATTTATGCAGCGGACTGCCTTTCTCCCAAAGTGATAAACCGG…AGGTTGGTTTCACT; site = the 11-nt donor
If the reported recombinant UMI read abundance (log10) equals or exceeds 0.01, assign yes (1). If not, assign no (0).

# POLYMER SEQUENCE, LABEL CLASS
records = [
    ("GACTCTTCATGGACCGGTTTTCCCGGTAATCCGTATTTGGC (site GACTCTTCTGC)", "yes (1)"),
    ("TCATACTCATGGACCGGTTTTCCCGGTAATCCGTATTTGAA (site TCATACTCTTC)", "yes (1)"),
    ("AGCTTTTCATGGACCGGTTTTCCCGGTAATCCGTATTTGAC (site AGCTTTTCTGT)", "no (0)"),
    ("AGGAAGTCATGGACCGGTTTTCCCGGTAATCCGTATTTGCG (site AGGAAGACTTG)", "no (0)"),
    ("CTTAAAGCATGGACCGGTTTTCCCGGTAATCCGTATTTGAT (site CCTAAAGCTAT)", "no (0)"),
    ("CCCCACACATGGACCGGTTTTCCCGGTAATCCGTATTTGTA (site CCACACACTTA)", "yes (1)"),
    ("GAAGTTTCATGGACCGGTTTTCCCGGTAATCCGTATTTGTT (site GAAGATTCTAA)", "no (0)"),
    ("TAAATTCCATGGACCGGTTTTCCCGGTAATCCGTATTTGGG (site TAAATTCCTCC)", "no (0)"),
]

Data request: Can CCTAAAGCATGGACCGGTTTTCCCGGTAATCCGTATTTGAG (site CCTAAAGCTCT) be said to have recombinant UMI read abundance (log10) at or above 0.01?
Data returned: yes (1)

FYI, the data here is from the supplement of paper PMC11208160.
